testProtocol: in vitro
condition: human, Caco-2
measuredMetric: Papp B→A at 120 min, 10 µM

**Q:** For COc1cc(C=CC(=O)C(Cc2cn(CCCCCCNC(=O)CCNC(=O)CCNC(=O)COC3CCC4(C)C(=CCC5C4CCC4(C)C(C(C)CCCC(C)C)CCC54)C3)nn2)C(=O)C=Cc2ccc(O)c(OC)c2)ccc1O (stereo not shown) , what is its reported Papp B→A at 120 min, 10 µM?
**A:** 4.7 ×10⁻⁶ cm/s

---

testProtocol: in vitro
condition: human, Caco-2
measuredMetric: efflux ratio at 120 min, 10 µM
# answer = number (no unit)

**Q:** For COc1cc(C=CC(=O)C(Cc2cn(CCCCCCNC(=O)CCNC(=O)CCNC(=O)COC3CCC4(C)C(=CCC5C4CCC4(C)C(C(C)CCCC(C)C)CCC54)C3)nn2)C(=O)C=Cc2ccc(O)c(OC)c2)ccc1O (stereo not shown) [BMAOI 14] , what is its reported efflux ratio at 120 min, 10 µM?
**A:** 0.63

---

measuredOn: Aβ42 monomers (Homo sapiens, UniProt P05067)
Construct: The monomers, oligomers and fibrils of Aβ42 were prepared according to established protocols and confirmed by TEM
testProtocol: Fluorescence polarization binding to Aβ42 monomers
condition: compound 1 μM, 3 hrs, read-out: apparent binding constant (Kd) for Aβ42 monomers
measuredMetric: pKd
Give only the number. pKd is defined as minus log10 of concentration in molar units.

**Q:** For COc1cc(C=CC(=O)C(Cc2cn(CCCCCCNC(=O)CCNC(=O)CCNC(=O)COC3CCC4(C)C(=CCC5C4CCC4(C)C(C(C)CCCC(C)C)CCC54)C3)nn2)C(=O)C=Cc2ccc(O)c(OC)c2)ccc1O (stereo not shown) , what is its reported pKd?
**A:** 5.69

---

measuredOn: Aβ42 fibrils (Homo sapiens, UniProt P05067)
Construct: The monomers, oligomers and fibrils of Aβ42 were prepared according to established protocols and confirmed by TEM
Sequence (P05067 672-713 limits assumed): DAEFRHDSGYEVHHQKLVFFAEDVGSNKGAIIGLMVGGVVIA
testProtocol: Fluorescence polarization binding to Aβ42 fibrils
condition: compound 1 μM, 3 hrs, read-out: apparent binding constant (Kd) for Aβ42 fibrils
measuredMetric: pKd
Give only the number. pKd is defined as minus log10 of concentration in molar units.

**Q:** For COc1cc(C=CC(=O)C(Cc2cn(CCCCCCNC(=O)CCNC(=O)CCNC(=O)COC3CCC4(C)C(=CCC5C4CCC4(C)C(C(C)CCCC(C)C)CCC54)C3)nn2)C(=O)C=Cc2ccc(O)c(OC)c2)ccc1O (stereo not shown) , what is its reported pKd?
**A:** 6.08
